tested on: MCF7; test: Cytotoxicity against human MCF7 cells after 48 hrs by MTT assay; assay type: functional, cell-based; conditions: MCF7, 48 h
Readout name: pIC50
In plain terms, pIC50 is the concentration in mol/L turned into minus its base-10 logarithm.

CC1=C[C@@H]2/C=C(\C)CCC[C@H](O)/C=C/C(=O)O[C@]23C(=O)N[C@@H](CC(C)C)[C@@H]3[C@@H]1C: 4.83

So what's the measured pIC50 for this one? CC1=C[C@@H]2/C=C(\C)CCCC(O)/C=C/C(=O)[C@]23C(=O)N[C@@H](CC(C)C)[C@@H]3[C@@H]1C (some centres not stated)
5.30

So what's the measured pIC50 for this one? `CO[C@H]1[C@@H](O)CC/C(C)=C/[C@H]2C=C(C)[C@@H](C)[C@H]3[C@H](CC(C)C)NC(=O)[C@]32C(=O)C[C@@H]1O`
4.88

So what's the measured pIC50 for this one? `CC1=C[C@@H]2/C=C(\C)CC[C@H](O)[C@H](O)/C=C/C(=O)[C@]23C(=O)N[C@@H](CC(C)C)[C@@H]3[C@@H]1C`
5.28

So what's the measured pIC50 for this one? `CC1=C[C@@H]2/C=C(\C)CC[C@H](O)[C@H](O)/C=C/C(=O)O[C@]23C(=O)N[C@@H](CC(C)C)[C@@H]3[C@@H]1C`
4.48

So what's the measured pIC50 for this one? `CC1=C[C@@H]2/C=C(\C)CC[C@H](O)[C@H](O)[C@@H](O)CC(=O)[C@]23C(=O)N[C@@H](CC(C)C)[C@@H]3[C@@H]1C`
4.52

So what's the measured pIC50 for this one? `CC1=C[C@@H]2/C=C(\C)CC[C@H](O)[C@@H](O)/C=C/C(=O)[C@]23C(=O)N[C@@H](CC(C)C)[C@@H]3[C@@H]1C`
5.11
